test: Cytotoxicity against human L02 cells assessed as reduction in cell viability measured after 24 hrs by CCK-8 assay; assay type: toxicity, cell-based
Hi there, I'd appreciate the recorded IC50 at 24 h for every entry that follows.

In: Would you mind telling me what IC50 at 24 h value was observed for N=C(N)NCCC[C@H](NC(=O)[C@H](CCCNC(=N)N)NC(=O)[C@H](CCCNC(=N)N)NC(=O)[C@H](CCC(N)=O)NC(=O)[C@H](CCCNC(=N)N)NC(=O)[C@H](CCCNC(=N)N)NC(=O)[C@H](CCCCN)NC(=O)[C@H](CCCCN)NC(=O)[C@H](CCCNC(=N)N)NC(=O)CNC(=O)[C@@H](N)Cc1ccc(O)cc1)C(=O)O ?
Out: > 100 µM

In: Would you mind telling me what IC50 at 24 h value was observed for N=C(N)NCCC[C@H](NC(=O)[C@H](CCCNC(=N)N)NC(=O)[C@H](CCCNC(=N)N)NC(=O)[C@H](CCCNC(=N)N)NC(=O)[C@H](CCCNC(=N)N)NC(=O)[C@H](CCCNC(=N)N)NC(=O)[C@H](CCCNC(=N)N)NC(=O)[C@H](CCCNC(=N)N)NC(=O)[C@@H](N)CCCNC(=N)N)C(=O)O ?
Out: > 100 µM

Cited source: ChEMBL document CHEMBL5120831
